target: T1, soluble human MSLN (87BGR) (human, UniProt Q13421 296-598); experiment: protein ELISA, coated soluble human MSLN (87BGR)
T1 construct: Purified soluble protein coated on the ELISA plate; also called HuMSLN (87BGR); purified human MSLN
T1 sequence (Q13421 other isoform, or with tags, fused parts or gaps limits assumed, form in doubt): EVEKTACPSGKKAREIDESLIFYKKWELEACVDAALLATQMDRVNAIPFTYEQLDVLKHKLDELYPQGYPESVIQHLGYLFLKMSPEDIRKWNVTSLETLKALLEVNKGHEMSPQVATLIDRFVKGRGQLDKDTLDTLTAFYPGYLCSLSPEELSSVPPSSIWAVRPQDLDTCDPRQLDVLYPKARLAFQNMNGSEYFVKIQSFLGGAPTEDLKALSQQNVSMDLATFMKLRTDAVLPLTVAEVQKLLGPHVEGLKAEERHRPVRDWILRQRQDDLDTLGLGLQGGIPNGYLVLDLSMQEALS
So I've got a bunch of binders here, and I need their EC50 values.
Report as a plain number; the unit µg/mL is understood.

The binder identified as SV017.51F4.1A1 (antibody, V domains shown, also called antibody from hybridoma clone SV017.51F4.1A1) VH: EVQLVESGGGLVQPGGSLRLSCAATGFTFSSYWMHWVRQGPGKGLVWVSRINSDGTSTVYADSVKGRFTISRDNAKNTLYLQMNSLRAEDTAVYYCARGRGIMTYWGQGTLVTVSS VL: DIQMTQSPSSLSASVGDRVTITCRASQDIGSWLTWYQRKPEKAPKSLIYAASSLQSGVPSRFSGSGSGTDFTLTISSLQPEDFATYYCQQYKSYPLTFGQGAKLEIK registered its EC50 at 0.03

The binder identified as SV017.13B12.1E1 (antibody, V domains shown, also called antibody from hybridoma clone SV017.13B12.1E1) VH: EVQLVESGGGLVQPGGSLRLSCAATGFTFSSYWMHWVRQGPGKGLVWVSRINSDGTSTVYADSVKGRFTISRDNAKNTLHLQMNSLRAEDTAVYYCARGRGIMTYWGQGTLVTVSS VL: DIQMTQSPSSLSASVGDRVTITCRASQDIGSWLTWYQRKPEKAPKSLIYAASSLQSGVPSRFSGSGSGTDFTLTISSLQPEDFATYYCQQYKSYPLTFGQGAKLEIK registered its EC50 at 0.04

The binder identified as SV017.47D7.1C2 (antibody, V domains shown, also called antibody from hybridoma clone SV017.47D7.1C2) VH: EVQLVESGGGLVQPGGSLRLSCAATGFTFSSYWMHWVRQGPGKGLVWVSRINSDGTSTVYADSVKGRFTISRDNAKNTLYLQMNSLRAEDTAVYYCARGRGIMTYWGQGTLVTVSS VL: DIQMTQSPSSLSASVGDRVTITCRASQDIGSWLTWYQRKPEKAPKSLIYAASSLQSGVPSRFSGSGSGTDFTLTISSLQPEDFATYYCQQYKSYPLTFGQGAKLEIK registered its EC50 at 0.03

The binder identified as SV017.50G3.1B1 (antibody, V domains shown, also called antibody from hybridoma clone SV017.50G3.1B1) VH: EVQLVESGGGLVQPGESLRLSCAATGFTFSSYWMHWVRQGPGKGLVWVSRINSDGTSTVYADSVKGRFTISRDNAKNTLFLQMNSLRAEDTAVYYCARGRGIMTYWGQGTLVTVSS VL: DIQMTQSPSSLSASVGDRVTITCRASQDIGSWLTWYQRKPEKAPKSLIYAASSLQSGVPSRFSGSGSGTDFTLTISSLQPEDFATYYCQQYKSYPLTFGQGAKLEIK registered its EC50 at 0.04

The binder identified as SV018.45B6.1G1 (antibody, V domains shown, also called SV018.45.1G1) VH: QVQLLQSGAEVKKPGASVKVSCKASGYTFTTYGISWVRQAPGQGLEWLGWITAYNRNTNYAQKLQGRVTMTTDTSTSTSFMVLRSLRSDDTAVYYCARVGDSDAFDIWGQGTMVTVSS VL: EIVMTQSPATLSLSPGERATLSCRTSQSVFNSFLSWYQQKPGQAPRLLLYGTSTRATGIPARFSGSGSGTDFTLTISSLQPEDFAVYYCQQDYKLPLTFGGGTKVEIK registered its EC50 at 1.37

The binder identified as SV018.20B12.1D1 (antibody, V domains shown, also called antibody from hybridoma clone SV018.20B12.1D1) VH: QVQLQESGPGLVKPSETLSLTCTVSGGSISSYYWSWIRQPPGKGLEWIGYIYYSGSTNYNPSLKSRVTISVDTSKNQFSLKLSSVTAADTAVYYCARTGYIPMDVWGQGTTVTVSS VL: EIVLTQSPDFQSVTPKEKVTITCRASQSIGSNLHWYQQKPDQSPKLLIKYVSQSFSGVPSRFSGSGSGTDFTLTINSLEAEDAATYYCHQSRSLPYTFGQGTKLEIK registered its EC50 at 0.11

// provenance: patent US20260258147A1
